Hi there, I'd appreciate the recorded Papp for every entry that follows.
# assay_comment: passive permeability, PAMPA, ADME assay (AID 1508612)
# condition_details: pH 7.4, 30.0 min, 50.0 µM

Given `Fc1cc(Nc2nc(-c3ccncc3)nc3ccccc23)ccc1-c1cn[nH]c1` , state its recorded Papp.
36.1 ×10⁻⁶ cm/s

Given `CC(C)Oc1cccc(-c2ccnc(N3CCC(C(N)=O)CC3)n2)c1` , state its recorded Papp.
> 1000 ×10⁻⁶ cm/s

Given `CC(C)CC(=O)Nc1n[nH]c2c1CN(C(=O)C1CCN(C)CC1)C2(C)C` , state its recorded Papp.
< 1 ×10⁻⁶ cm/s

Given `Clc1ccccc1-c1nccc(-n2ccnc2)n1` , state its recorded Papp.
> 1000 ×10⁻⁶ cm/s

Given `O=S(=O)(c1ccc(Cl)cc1)c1ccccn1` , state its recorded Papp.
407 ×10⁻⁶ cm/s

Given `CC(=O)c1ccc(N[S+](=O)([O-])c2cccc(NC(=O)c3[nH]c(C)c(C(C)=O)c3C)c2)cc1` , state its recorded Papp.
< 1 ×10⁻⁶ cm/s

Given COc1ccc(CCN2C(=O)N(c3ccc(F)cc3)C(=O)C2CC(=O)Nc2ccc(F)c(F)c2)cc1 (stereo not given) , state its recorded Papp.
719 ×10⁻⁶ cm/s

Given COc1ccccc1NC(=O)C1=C(C)Nc2c(C(=O)Nc3ccc(F)cc3)cnn2C1c1ccc(Cl)cc1 (stereo not given) , state its recorded Papp.
302 ×10⁻⁶ cm/s

Given `CCOC(=O)C1CCN(C(=O)C(C)(C)NC(=O)Nc2ccc(Cl)cc2Cl)CC1` , state its recorded Papp.
725 ×10⁻⁶ cm/s

Given `COc1ccc(-c2ccc3ncc4c(c3c2)n(-c2ccc(N3CCNCC3)c(C(F)(F)F)c2)c(=O)n4C)cn1` , state its recorded Papp.
< 1 ×10⁻⁶ cm/s
